Value source: ChEMBL document CHEMBL1201862

Test system: SNB-19
Assay: NCI tumour cell line growth inhibition, 48 h
Calls of active or inactive are those of the source. No stated cut-off is given here; in the data, active = GI50 up to about 1.1 µM and inactive = higher.
Outcome codes: active, inactive

{"columns": ["compound", "assay system", "category"],
 "data": [
  ["Nc1ncc2c(n1)-c1ccccc1OC2NC1CC1 (stereo unspecified)", "SNB-19", "inactive"],
  ["Cn1cc2ccccc2c1-c1nc(F)nc(F)n1", "SNB-19", "inactive"],
  ["O=C1Cc2c([nH]c3ccc(Br)cc23)-c2cc(Br)ccc2N1", "SNB-19", "inactive"],
  ["COc1ccc(C2(O)C(S(=O)(=O)c3ccc(C)cc3)=Cc3ccc(OC)cc32)cc1 (stereo unspecified)", "SNB-19", "inactive"],
  ["CCCCCC(/C=N/NC(N)=S)C(O)(C(F)(F)F)C(F)(F)F (stereo unspecified)", "SNB-19", "inactive"],
  ["CCc1cccc2c3c([nH]c12)-c1ccccc1NC(=O)C3", "SNB-19", "inactive"],
  ["O=[N+]([O-])c1ccc2[nH]c(-c3ccc(Cl)cc3)nc2c1", "SNB-19", "inactive"],
  ["OCC1CC2CC1C1(C2)OCCO1 (stereo unspecified)", "SNB-19", "inactive"],
  ["CN(C)c1ccc2cc3ccc(N(C)C)cc3nc2c1", "SNB-19", "active"],
  ["CC1=C(C(=O)Nc2ccccc2)C(c2ccc(C3C(C(=O)Nc4ccccc4)=C(C)NC(C)=C3C(=O)Nc3ccccc3)cc2)C(C(=O)Nc2ccccc2)=C(C)N1", "SNB-19", "inactive"],
  ["COc1nc2c(OC)cccc2c(OC)c1C=O", "SNB-19", "inactive"]
]}

----------
Test system: NCI-H460
Assay: NCI tumour cell line growth inhibition, 48 h
Activity calls are given as the source filed them. Cut-off read from the data, not from the text of the source: active = GI50 up to about 1.1 µM and inactive = higher.
Outcome codes: t for active, f for inactive

{"columns": ["compound", "assay system", "category"],
 "data": [
  ["C=CCOn1c(C=C)nc2c(C)cccc21", "NCI-H460", "f"],
  ["CC(C)(C)OC(=O)NCCCCC(NC(=O)OCc1ccccc1)C(N)=O (configuration not stated)", "NCI-H460", "f"],
  ["COc1cc(S(=O)(=O)Nc2nc(-c3ccc(N)cc3)cs2)ccc1Cl", "NCI-H460", "f"],
  ["O=C(CCCC1Cc2ccccc2C1=O)c1ccccc1 (configuration not stated)", "NCI-H460", "f"],
  ["CCCCCCCCCC(=O)CC(=O)c1c(O)cccc1O", "NCI-H460", "f"],
  ["N#CC(C(=O)CCCC(=O)Nc1ccccc1[N+](=O)[O-])c1c(Cl)cccc1Cl (configuration not stated)", "NCI-H460", "f"],
  ["Sc1ncc2[nH]nnc2n1", "NCI-H460", "f"],
  ["CCCCCC(/C=N/NC(N)=S)C(O)(C(F)(F)F)C(F)(F)F (configuration not stated)", "NCI-H460", "f"],
  ["CCCCc1c2c(nc3c1CCCC3O)CCCC2 (configuration not stated)", "NCI-H460", "f"],
  ["Cc1ccccc1C(=O)N1CCc2c([nH]c3ccccc23)C1", "NCI-H460", "f"],
  ["CN1C(=O)CC2CCCN2C1=O (configuration not stated)", "NCI-H460", "f"],
  ["CCOP(=O)(OCC)/C(C#N)=C/c1coc2cc(C)cc(C)c2c1=O", "NCI-H460", "f"],
  ["OCC(O)C(O)c1nn(-c2ccccc2)c2nc3cc(Cl)c(Cl)cc3nc12 (configuration not stated)", "NCI-H460", "f"],
  ["CCCCCCOc1ccc(NC2=C(Cl)C(=O)c3c(O)ccc(O)c3C2=O)cc1", "NCI-H460", "t"],
  ["O=C(Nc1sccc1S(=O)(=O)c1ccc(Cl)cc1)C(F)(F)F", "NCI-H460", "f"],
  ["OCC1CC2CC1C1(C2)OCCO1 (configuration not stated)", "NCI-H460", "f"],
  ["Nc1nn2c(C(Br)Br)cc(C(Br)Br)nc2c1[N+](=O)[O-]", "NCI-H460", "f"],
  ["CC1=CC2C(C=C1)S(=O)(=O)N1CC21c1ccccc1 (configuration not stated)", "NCI-H460", "f"],
  ["CC(C)(C)c1cc2c(O)c(c1)Cc1cc(C(C)(C)C)cc(c1O)Cc1cc(C(C)(C)C)cc(c1O)Cc1cc(C(C)(C)C)cc(c1O)Cc1cc(C(C)(C)C)cc(c1O)Cc1cc(C(C)(C)C)cc(c1O)Cc1cc(C(C)(C)C)cc(c1O)Cc1cc(C(C)(C)C)cc(c1O)C2", "NCI-H460", "f"],
  ["CSc1c(C#N)c2n(c3ccccc3[n+]2C)c2ncccc12", "NCI-H460", "f"],
  ["CC(=O)Nc1ccc(Nc2cc(=O)n(C)c(=O)[nH]2)cc1", "NCI-H460", "f"],
  ["CC(=O)OCCOCNC(=S)N/N=C/c1ccc([N+](=O)[O-])s1", "NCI-H460", "f"]
]}
